Data origin, for the record: patent US20120114652A1

# experimental-target: T1, rat PAI-1 (rat, UniProt P20961 24-402)
# T1 sequence: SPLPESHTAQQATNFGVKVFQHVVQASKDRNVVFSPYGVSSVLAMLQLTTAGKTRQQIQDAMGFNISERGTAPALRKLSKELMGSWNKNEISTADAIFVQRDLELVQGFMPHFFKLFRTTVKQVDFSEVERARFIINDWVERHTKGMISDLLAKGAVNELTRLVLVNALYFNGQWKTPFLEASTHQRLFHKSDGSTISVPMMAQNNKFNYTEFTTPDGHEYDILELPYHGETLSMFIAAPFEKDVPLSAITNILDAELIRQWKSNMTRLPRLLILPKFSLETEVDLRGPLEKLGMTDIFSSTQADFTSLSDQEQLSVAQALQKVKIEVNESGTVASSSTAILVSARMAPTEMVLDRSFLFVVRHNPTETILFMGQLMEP
# protocol-summary: cell-based or functional assay
We begin with a simple list: items and their reported IC50 chromogenic.
Kindly provide the numeric value in nM only, without the unit symbol.

Recorded IC50 chromogenic, per entry:
>>> reading("Antibody 07, scFv (scFv, V domains shown) VH: QVQLQQSGAEVKKPGSSVKVSCKASGGTFSSYAISWVRQAPGQGLEWVGGIIPTFGTANYAQKFQGRVTITADESTSTAYMELSGLRSEDTAVYYCAREKRQWLEGHFDYWGRGTPVTVSS VL: DIQMAQSPSFLSASIGDRVTITCRASEGIYHELAWYQQKPGKAPKLLIYRASSLASGAPSRFSGSGSGTDFTLTISSLQPDDFATYYCQQYSNYPLTFGGGTKLEIK")
91
>>> reading("Antibody 19, scFv (scFv, V domains shown) VH: QVQLQQSGAEVKKPGSSVKVSCKASGGTFSSYAISWVRQAPGQGLEWMGGIIPIFDTANYAQKFQGRVTITADESTSTAYMELSGLRSEDTAVYYCARERRQWLEGHFDYWGRGTPVTVSS VL: DIRMTQSPSFLSASIGDRVTITCRASEGIYHELAWYQQKPGKAPKLLIYRASSLASGAPSRFSGSGSGTEFTLTISSLQPDDFATYYCQQYSNYPLTFGGGTKLEIK")
7.9

// next item, IC50 chromogenic requested
INPUT: Entry under review: Antibody 09, scFv (scFv, V domains shown) VH: QVQLQQSGAEVKKPGSSVKVSCKASGGTFSSYAISWVRQAPGQGLEWMGGIIPAFDTANYAQKFQGRVTITADESTSTAYMELSGLRSEDTAVYYCAREKRQWLEGHFDYWGRGTPVTVSS VL: DIQMTQSPSFLSASIGDRVTITCQASEGIYHNLAWYQQKPGKAPKLLIYRASSLASGAPSRFSGSGSGTDFTLTISSLQPDDFATYYCQQYSNYPLTFGGGTKLEIK . Reported IC50 chromogenic?
OUTPUT: 29.7
